# TEST_TARGET: SARS2 protease (Severe acute respiratory syndrome coronavirus 2, UniProt P0DTD1)
# Construct: SARS2 protease was added to a final concentration of 30 nM
# PROTOCOL_TEXT: SARS-CoV-2 protease inhibition assay (SARS2 FRET protease assay)
# Format: biochemical
# ASSAY_CONTEXT: IC50 (μM), SARS2 protease 30 nM, peptide substrate 1.3 μM, 120 minutes at 37° C., compounds 20 μM to 0.075 nM
REPORTED_METRIC: IC50
Answer format: number, then unit.

Supply recorded IC50 for CCCC[C@H](NC(=O)O[C@H](c1ccccc1)C(F)(F)c1cccc(Cl)c1)C(=O)N[C@H](C=O)C[C@@H]1CCCNC1=O [Compound A146] here.
0.038 µM

Specify measured IC50 for CC(C)C[C@H](NC(=O)O[C@@H](c1ccc(F)cc1)C(C)(C)c1cccc(Cl)c1)C(=O)N[C@H](C=O)C[C@@H]1CCNC1=O [Compound A202] .
0.021 µM

Write down IC50 measured for item O=C[C@H](C[C@@H]1CCNC1=O)NC(=O)[C@H](Cc1cccc(Cl)c1)NC(=O)OC(c1ccccc1)C(F)(F)c1cccc(Cl)c1 (some centres unmarked) [Compound A286]
0.0001 µM

Complete the entry with IC50 for CCN1CCC(NC(=O)C(=O)[C@H](C[C@@H]2CCNC2=O)NC(=O)[C@H](CC(C)C)NC(=O)OC(c2ccccc2)C(CC)(CC)c2cccc(Cl)c2)CC1 (some centres unmarked) [Compound A17]
30.3 µM

Indicate its recorded IC50; the molecule in question is CC(C)C[C@H](NC(=O)O[C@@H](c1cccc(Cl)c1)C(C)(C)c1cccc(Cl)c1)C(=O)N[C@H](C=O)C[C@@H]1CCNC1=O [Compound A139]
0.003 µM

Please list IC50 recorded for the molecule CCCC[C@H](NC(=O)OC(c1ccccc1)C(F)(F)c1cccc(Cl)c1)C(=O)N[C@@H](C[C@@H]1CCNC1=O)C(=O)C(=O)NCCO (some centres unmarked) [Compound A231]
0.089 µM

Specify IC50 for CCCC[C@H](NC(=O)OC(c1ccc(F)cc1)C1(c2cccc(Cl)c2)CC1)C(=O)N[C@H](C=O)C[C@@H]1CCNC1=O (some centres unmarked) [Compound A91] and stop.
0.01 µM

Read off the recorded IC50 for CCCC[C@H](NC(=O)OC(c1ccccc1)C(F)(F)c1cccc(Cl)c1)C(=O)N[C@H](C=O)C[C@H]1CCNC1=O (some centres unmarked) [Compound A183]
0.019 µM

Consider the molecule CCNC(=O)C(=O)[C@H](C[C@@H]1CCNC1=O)NC(=O)[C@@H](CC1(C)CCC1)NC(=O)O[C@@H](c1ccccc1)C(F)(F)c1cccc(Cl)c1 [Compound A324] and give its recorded IC50.
0.0003 µM

Dear colleague, please send me the reported IC50 for CCCC[C@H](NC(=O)OC(c1ccc(F)cc1)C(F)(F)c1cccc(F)c1)C(=O)N[C@H](C=O)C[C@@H]1CCNC1=O (some centres unmarked) [Compound A55] when you can.
0.01 µM

Answer with reported IC50 of CCC[C@H](NC(=O)OC(c1ccccc1)C(F)(F)c1cccc(Cl)c1)C(=O)N[C@@H](C[C@@H]1CCNC1=O)C(=O)C(=O)NCC (some centres unmarked) [Compound A145]
0.15 µM

Specify reported IC50 for the molecule shown: CCOP(=O)(OCC)C(O)[C@H](C[C@@H]1CCNC1=O)NC(=O)[C@H](CC1CCCCC1)NC(=O)O[C@H](c1ccccc1)C(F)(F)c1cccc(Cl)c1 (some centres unmarked) [Compound A293]
16.1 µM

Please report IC50 for the following molecule: CCOC(=O)/C=C/[C@H](C[C@@H]1CCNC1=O)NC(=O)[C@H](CC(C)C)NC(=O)OC(c1ccccc1)C(F)(F)c1cccc(Cl)c1 (some centres unmarked) [Compound A128]
3.95 µM

In one line, give reported IC50 of the entry CCCCCOC(=O)N[C@@H](CC(C)C)C(=O)N[C@@H](C[C@@H]1CCNC1=O)C(=O)C(=O)NC1CC1 [Compound A12] .
0.876 µM

Using known records, supply IC50 for CCC(=O)OC([C@H](C[C@@H]1CCNC1=O)NC(=O)[C@H](CC1CCCCC1)NC(=O)O[C@@H](c1ccccc1)C(F)(F)c1cccc(Cl)c1)S(=O)(=O)O (some centres unmarked) [Compound A211]
0.504 µM

Using known records, supply IC50 for CC(C)C[C@H](NC(=O)O[C@H](c1ccc(Cl)cc1)C1(c2cccc(Cl)c2)CC1)C(=O)N[C@H](C=O)C[C@@H]1CCNC1=O [Compound A45]
0.02 µM

Check the records and state IC50 for CCC(=O)OC([C@H](C[C@@H]1CCNC1=O)NC(=O)[C@H](CC1CCCCC1)NC(=O)OC(c1ccccc1)C(F)(F)c1cccc(Cl)c1)S(=O)(=O)O (some centres unmarked) [Compound A101]
0.178 µM

Provide only the value of recorded IC50 for O=C[C@H](C[C@@H]1CCNC1=O)NC(=O)[C@H](CC1CCCCC1)NC(=O)OC(c1ccccc1)C(F)(F)c1cccc(F)c1 (some centres unmarked) [Compound A67]
0.002 µM

Identify measured IC50 corresponding to CCC[C@H](NC(=O)O[C@@H](c1ccc(F)cc1)C(F)(F)c1cccc(Cl)c1)C(=O)N[C@H](C=O)C[C@@H]1CCNC1=O [Compound A148]
0.007 µM

Give reported IC50 value for CCCC[C@H](NC(=O)O[C@@H](c1ccccc1)C(F)(F)c1cccc(Cl)c1)C(=O)N[C@@H](C[C@@H]1CCNC1=O)C(=O)C(=O)NC1CC1 [Compound A115]
0.805 µM

Item CCCC[C@H](NC(=O)O[C@H](c1ccccc1)C(C)(C)c1cccc(Cl)c1)C(=O)N[C@@H](C[C@@H]1CCNC1=O)C(=O)C(=O)NC1CC1 [Compound A178] : provide IC50
1.04 µM

Given O=C[C@H](C[C@H]1CCNC1=O)NC(=O)[C@H](CC1CCCCC1)NC(=O)OC(c1ccccc1)C(F)(F)c1cccc(Cl)c1 (some centres unmarked) [Compound A161] , respond with its IC50.
0.582 µM

Respond only with IC50 recorded for O=C(N[C@@H](CC1CCCC1)C(=O)N[C@@H](C[C@@H]1CCNC1=O)C(=O)C(=O)NC1CC1)OC(c1ccccc1)C(F)(F)c1cccc(Cl)c1 (some centres unmarked) [Compound A103]
0.156 µM
